Listed next: entries and their corresponding SI (CC50/EC50).
- System: CHIKV-118-GFP
- test summary: Resazurin reduction assay, dose-response of inhibition of CHIKV-associated cell death in HuH-7
- condition label: minimum SI based on the highest concentration of compound tested

CC(C)c1ccc(NC(=O)c2csc(C(O)C(C)C)n2)cc1 (stereo not drawn) [CND3514]    >22.7
COc1ccc(-c2ccc(C(=O)NC(C)C)c3occc23)c(C)c1 [CND0335]    >15
COc1cccc(Nc2cc3c(cn2)cc(-c2cccc(C(F)(F)F)c2)n3C)c1 [CND0545]    >8.9
COc1ccc(-c2coc3c(C(=O)NC(C)C)cccc23)c(C)c1 [CND0415]    >8.1

INPUT: Request body: readout SI (CC50/EC50), system CHIKV-118-GFP, query COc1ccc(-c2ccc(C(=O)Nc3ccc(C(C)C)cc3)c3occc23)c(C)c1 [CND0364] . Return the value.
OUTPUT: >8.1

INPUT: Request body: readout SI (CC50/EC50), system CHIKV-118-GFP, query COc1ccc(-c2coc3c(C(=O)Nc4cccnc4)cccc23)c(C)c1 [CND0366] . Return the value.
OUTPUT: >7.0

----------
Listed next: entries and their corresponding CC50 at 72 h.
- test summary: Resazurin reduction assay, toxicity in MOCK-infected (non-infected) HuH-7
- condition label: human

CCN(CC)CCCC(C)Nc1ccnc2cc(Cl)ccc12 (stereo not shown) [CQ, Chloroquine, reference compound]    90 µM
COc1cccc(Nc2cc3c(cn2)cc(-c2cccc(C(F)(F)F)c2)n3C)c1 [CND0545]    > 50 µM
COc1ccc(-c2ccc(C(=O)NC(C)C)c3occc23)c(C)c1 [CND0335]    > 50 µM

Next item in the queue.
INPUT: Recorded CC50 at 72 h of COc1ccc(-c2coc3c(C(=O)Nc4cccnc4)cccc23)c(C)c1 [CND0366] , please.
OUTPUT: > 50 µM

----------
- Test system: HuH-7 cells
- condition label: human
endpoint name: CC50 (nM)
Give the number; nM is assumed, so skip it.

INPUT: Recorded CC50 of CO/C1=C\C(C)=C\[C@@H](C)[C@@H](O)[C@@H](C)C/C(C)=C/C=C/[C@H](OC)[C@@H]([C@@H](C)[C@@H](O)[C@H](C)[C@@]2(O)C[C@@H](O)[C@H](C)[C@@H](C(C)C)O2)OC1=O , please.
OUTPUT: 237

----------
- test summary: Resazurin reduction assay, toxicity in MOCK-infected (non-infected) HuH-7
- condition label: human
Listed next: entries and their corresponding CC50 at 72 h.

INPUT: Recorded CC50 at 72 h of COc1ccc(-c2coc3c(C(=O)NC(C)C)cccc23)c(C)c1 , please.
OUTPUT: > 50 µM

INPUT: Recorded CC50 at 72 h of COc1c(C)c2c(c(O)c1C/C=C(\C)CCC(=O)O)C(=O)OC2 [MPA, Mycophenolic acid, reference compound] , please.
OUTPUT: > 100 µM

INPUT: Recorded CC50 at 72 h of COc1ccc(-c2ccc(C(=O)Nc3ccc(C(C)C)cc3)c3occc23)c(C)c1 , please.
OUTPUT: > 50 µM

INPUT: Recorded CC50 at 72 h of CC(C)c1ccc(NC(=O)c2csc(C(O)C(C)C)n2)cc1 (stereo not shown) , please.
OUTPUT: > 50 µM
